test: Bleomycin model of pulmonary fibrosis: right lung hydroxyproline content, left lung fibrosis score; assay type: in vivo, Wistar rats; conditions: Wistar, rat, plasma; Bleomycin + PO 30 mg/kg; read-out: Plasma AUCO-2 hrs
observationType: AUC
Provide a numeric answer, followed by its unit.

For this compound ( `Cc1ccc(=O)n(-c2ccccc2)c1` ), measured AUC is 16600 ng·h/mL

###

assay: Extended-duration intratracheal and oral pharmacokinetic study; format: in vivo, Wistar rats; details: intratracheal aerosol 2.5 mg/kg, extended-duration (2 minutes)
observationType: Lung Tissue AUC(0-2 hr)
Provide a numeric answer, followed by its unit.

For this compound ( Cc1ccc(=O)n(-c2ccccc2)c1 [pirfenidone, 5-methyl-1-phenyl-2-(1H)-pyridone] ), measured Lung Tissue AUC(0-2 hr) is 3.5 µg·h/g

###

Test: Pharmacokinetics and tissue distribution (lung, plasma, heart, kidney) of co-solvent formulations, bolus intratracheal aerosol
Type: in vivo, Sprague-Dawley rats
Conditions: Sprague-Dawley, rat, lung, other: intratracheal bolus aerosol (nebulizing catheter), 4 mg/kg, Group 4; 0.1 hr; about 4 mg/kg pirfenidone IT bolus aerosol; read-out: Analyte in lung tissue, Mean
Description: Selected formulations were prepared for pharmacokinetic analysis following aerosol delivery to rat lung. […] Formulations prepared for this study are outlined in Table 9. […] The sample was agitated until completely dissolved. […] Filtered samples were analyzed by HPLC.
observationType: concentration at 0.1 h (ng/g)
Dear colleague, please return just the value in ng/g, with no unit written.

For this compound ( Cc1ccc(=O)n(-c2ccccc2)c1 [pirfenidone, 5-methyl-1-phenyl-2-(1H)-pyridone] ), measured concentration at 0.1 h is 7500

###

experiment: Pharmacokinetics and tissue distribution (lung, plasma, heart, kidney) of co-solvent formulations, bolus intratracheal aerosol; assay type: in vivo, Sprague-Dawley rats; details: Sprague-Dawley, rat, lung, other: intratracheal bolus aerosol (nebulizing catheter), 4 mg/kg, Group 2; 0.333 hr; about 4 mg/kg pirfenidone IT bolus aerosol; read-out: Analyte in lung tissue, Mean
observationType: concentration at 0.333 h

For this compound ( `Cc1ccc(=O)n(-c2ccccc2)c1` ), measured concentration at 0.333 h is 3790 ng/g

###

test: Pharmacokinetics and tissue distribution (lung, plasma, heart, kidney) of co-solvent formulations, bolus intratracheal aerosol; format: in vivo, Sprague-Dawley rats; details: Sprague-Dawley, rat, lung, other: intratracheal bolus aerosol (nebulizing catheter), 4 mg/kg, Group 5; 0.1 hr; about 4 mg/kg pirfenidone IT bolus aerosol; read-out: Analyte in lung tissue, Mean
observationType: concentration at 0.1 h (ng/g)
Dear colleague, please return just the value in ng/g, with no unit written.

For this compound ( `Cc1ccc(=O)n(-c2ccccc2)c1` ), measured concentration at 0.1 h is 5830

###

Experiment: Bleomycin model of pulmonary fibrosis: right lung hydroxyproline content, left lung fibrosis score
Format: in vivo, Wistar rats
Details: Wistar, rat, plasma; Bleomycin + PO 100 mg/kg; read-out: Plasma AUCO-2 hrs
Description: To compare anti-fibrotic efficacy between extended-duration intratracheal, direct-lung aerosol administration and oral gavage, the bleomycin model of pulmonary fibrosis was performed. Doses for this study were selected based upon pharmacokinetic parameters obtained in Table 22 (from Example 8). […] Right lungs were extracted and measured for hydroxyproline content, while left lungs were subjected to histology. Histological sections were stained with picrosirius red and scored for lung tissue fibrosis. […]
observationType: AUC (ng·h/mL)
Dear colleague, please return just the value in ng·h/mL, with no unit written.

For this molecule ( `Cc1ccc(=O)n(-c2ccccc2)c1` ), measured AUC is 29600

Ref: patent US11452718B2
